ASSAY: yeast display, Sf9 membrane polyspecificity reagent, FACS + sequencing; frameworks hold sequencing errors
MEASURED_ATTRIBUTE: polyreactivity (PSR sort gate)

Looking up QVQLVESGGRLVQAGGSLRLSCAASGRIFKYYAMGWYRPAPGKERELVAAINRDGGRTYYADSVKGRFTISRDTAKISVYLQMNSLKPEDTAVYYCAASYGYVYTTSLDYWGQGTQVTVSS , I see its polyreactivity (PSR sort gate) listed as low polyreactivity

Looking up QVQLVESGGGLVQAGGSLRLSCAASGSIFKGYDMGWYRQAPGKERELVAAISSGSTNYADSVKGRFTISRDNAKNTVYLQMNSLKPEDTAVYYCNADLGRATFYQRVVIERGGYWGQGTQVTVSS , I see its polyreactivity (PSR sort gate) listed as low polyreactivity

Looking up QVQLVESGGGLVQAGGSLRLSCAASGRTFAPYVMGWYRQAPGKERELVAAITWSGGSTYYADSVKGRFTISRDNAKNTVYLQMNSLKPEDTALYYCAVKGAGGPKYDYWGQGTQVTVSS , I see its polyreactivity (PSR sort gate) listed as high polyreactivity

Looking up QVQLVESGGGLVQAGGSLRLSCAASGRTITAYTMVWYRQAPVKEREMVASISSGVTYADSVKGRFTISRDNAKNTVYLQMNRLKPEDTAVYYCAARLWYVQGYVPYVHHRFDYWGQGTQVTVSS , I see its polyreactivity (PSR sort gate) listed as low polyreactivity

Looking up QVQLVESGGGLVQAGGSLRLSCAACGRTLRTYGMGWYRQAPGKERELVATITRRGDSTYYADSVKGRFTISRDNAKNTVYLQMNSLKPEDTAVYYSNTASYGRHQFRKSSKMDYWGQGTQVTVSS , I see its polyreactivity (PSR sort gate) listed as high polyreactivity

***
Looking up QVQLVESGGGLVQAGGSLRLSCAASGRIFKYYAMGWYRQAPGKERELVAAITSAGNTKYADSVKGRFTISRDNAKNTVYLQMNSLKPEDTAVYYCARGRYYVIGSYDYWGQGTQVTVSS , I see its polyreactivity (PSR sort gate) listed as high polyreactivity

Looking up QVQLVESGGGLVQAGGSLRLSCAASGLIFFTYAMGWYRQAPGKERELVATISRGGRTKYADSVKGRFTISRDNAKNTVYLQMNSLKPEDTAVSYCAAYLSRSYYAYDYWGQGTQVTVSS , I see its polyreactivity (PSR sort gate) listed as high polyreactivity

* * *

ASSAY: yeast display, Sf9 membrane polyspecificity reagent, FACS + sequencing; frameworks hold sequencing errors
MEASURED_ATTRIBUTE: polyreactivity (PSR sort gate)

Looking up QVHLVESGGCLVQAGGSLRLICAASGRIFDGNTMGWYRQEPGKERELVAAISGVGSTDYADSVKGRYTISRDNAKNTVYFQINSLKPEDTAVYYCAATTGPVPLKGDYWGQGTQVTVSS , I see its polyreactivity (PSR sort gate) listed as low polyreactivity

Looking up QVQLVESGGGLVQAGGSLRLICAASGRIFAYYAMGWYRHAPGKERELVAAISGSGRTYYADSVKGRFTISRDNAKYTVYLQMNSLKPEDTAVYYCNNVYSFYYTEGYDYWGQVTQVTVSS , I see its polyreactivity (PSR sort gate) listed as high polyreactivity

Looking up QAQLQESGGSLVQAGGGMRLSCAASGYISVGSVMGWYRQAPSKERELVASIDQGANTNYADSVKGRFTISRDNAKNNVYLQMNSLKPEDTAVYYCATETTYILNYWGQGTQVTVSS , I see its polyreactivity (PSR sort gate) listed as low polyreactivity

Looking up QVQLVESGGGLVQAGGSLRLSCAASGSISGSNDMGWYRQAPGKERELVAAISGGSSTNYADSVKGRFTISRDNAKNTVYFQMNSLKPEDTAVYYCAARYRWFFFYGPHSPGYNYWGQGTQVTVSS , I see its polyreactivity (PSR sort gate) listed as high polyreactivity

Next, consider the following sequence.
Looking up QVQLVESGGGLVKAGGSLRLSCAASGSTFSRNTMGWYRQAPGKERELVAAITKSAVSTYYADTVTGRFTISRDNAKNTDYLEMNSLKPEDTAVYYSAKVYRTSTSKAYDYWGQGTKVTVSS , I see its polyreactivity (PSR sort gate) listed as high polyreactivity

* * *

ASSAY: yeast display, Sf9 membrane polyspecificity reagent, FACS + sequencing; frameworks hold sequencing errors
MEASURED_ATTRIBUTE: polyreactivity (PSR sort gate)

Looking up QVQLVESGGGLVQAGGSLRLSCAASGFIFYSNAMGWYRQAPGKERELVAAISWDAGSTYYADSVKGRFTISRDNAKNTVYLQMNSLKPEDTAVYYCATDRIVGRYIYNNWGQGTQVTVSS , I see its polyreactivity (PSR sort gate) listed as high polyreactivity

Looking up QVQLVESGGGLVQAGGILRLSCAASGFTFTRNAKGRYRQAPGKERELVAAISSGGRTYYADSVKGRFTISRDNAKNTVYLQMNSLKPEDTAVYYCPTTIWGPVEGYDYWGQGTQETVSS , I see its polyreactivity (PSR sort gate) listed as high polyreactivity

* * *

ASSAY: yeast display, Sf9 membrane polyspecificity reagent, FACS + sequencing; frameworks hold sequencing errors
MEASURED_ATTRIBUTE: polyreactivity (PSR sort gate)

Looking up QVQLVESRGGLVQAGGSLRLSCAASGRTFGRYAMGWYRQAPGKERELVAAINRGGSTKYADSVKGRFTISRDNAKNTVYLQMNSLKPEDTAVYYCAKDRHPALHYDYWGQGTQVTVSS , I see its polyreactivity (PSR sort gate) listed as low polyreactivity

Looking up QVQLVESGGGLVQAGGSLRLSCAASGIILDRNAMGWYRQAPGKERELDAAINSIGGSTYYADSVKGRFTISRDNAKNTVYLQMNSLKPEDTAVYYCAAPSTSSYYWGQGTQVTVSS , I see its polyreactivity (PSR sort gate) listed as low polyreactivity

* * *

ASSAY: yeast display, Sf9 membrane polyspecificity reagent, FACS + sequencing; frameworks hold sequencing errors
MEASURED_ATTRIBUTE: polyreactivity (PSR sort gate)

Looking up QVQLVESGGGLVQAGGSLRLSCAASGSIFKSYAMGWYRQAPGKERELVAAITWRSGRTYYADSVKGRFTISRDNAKNTVYLQMNSLKPEDTAVYYCAADDTSYYIYSYDYWGQGTQVTVSS , I see its polyreactivity (PSR sort gate) listed as low polyreactivity

Looking up QVQLVESGGGLVQAGGSLRLSCAASGRIGYNAMGWYRQAPGKERELVAAISSRGGSTYYADSVKGRFTISRDNAKNTVYLQMNSLKPEDTAVYYCNADYEARTRLGEYDYWGQGTQVTVSS , I see its polyreactivity (PSR sort gate) listed as high polyreactivity

Looking up QVQLVESGGRLVQAGGSLRLSWAASGRILWSNRMGWYRQAPGKERELVAAITYSGDTTYYADSVKGRFTISRDNEKNTVYLQMNSLKPDDTAVYYCAVEDAGQGGDYWGQGSQVTVSS , I see its polyreactivity (PSR sort gate) listed as low polyreactivity

Looking up QVQLVESVGGLVQAGGSLSLSCAASVFGRYAMGWYRPAPGKERELVARIYSSGGSTHYADSVKGRFTISRDNAKNTVYLQMNSLKPEDTAVYYCATGSTRWGCYYYWGQGTQVTVSS , I see its polyreactivity (PSR sort gate) listed as high polyreactivity

***
Looking up QVQLVESGGGLVQAGGSLRLSCAASGFTITYNAMGWYRKAPGKEREFVAAITNNGSTYYADSVKGRFTISRDNAKNTVYLQMNSLKPEDTAVYYCAVDPGYYDEYKYWGQGTQVTVSS , I see its polyreactivity (PSR sort gate) listed as low polyreactivity

* * *

ASSAY: yeast display, Sf9 membrane polyspecificity reagent, FACS + sequencing; frameworks hold sequencing errors
MEASURED_ATTRIBUTE: polyreactivity (PSR sort gate)

Use the examples below as a reference point.
Looking up QVQLVESGGGLVQAGGSLRLSCPASVLILVYYAMGWYRQAPGKERELVAAINPGGSTKYADSVKGRFTISRDNAKNTVYLQMNSLKQEDTEVYYCNADGEGADSDYDYWGQGTKVTVSS , I see its polyreactivity (PSR sort gate) listed as low polyreactivity

Looking up QVQLVESGGGLVQAGGSLRLSCAASGLIFDSYDMGWYRQAPGKERELVAAIRRNGGSTYYADSVKGRFTISRDNAKNTVYLQMNSLKPEDTAVYYCAVDNSGYSGVYWVKMDYWGQGTQVTVSS , I see its polyreactivity (PSR sort gate) listed as low polyreactivity

Looking up QVQLEESGGGLVQAGGSLRLSCAASGFITSHYAMGWYIQAPGKERELVATISSGGSTYADSVKGRFTISRDNAKNTVYLQMNSLKPEDTAVYYCNVRLQGTYRAGVRGDYWGQVTQVTVSS , I see its polyreactivity (PSR sort gate) listed as high polyreactivity

Looking up QVQLEESGGCLVQAGGSLRLSCAASGSIFWYNAMGRSRQAPGKERELVAAISYSGDRTYYADSVKGRFTISRDNAKNTGYLLMNSLKPEVTAVYYCAKAGTCFYNSWWEDSWGQGTQVTLSS , I see its polyreactivity (PSR sort gate) listed as low polyreactivity

***
Looking up QVQLVESGVGLVQAGGSLRLSCAASGRTIKANAMGWYRQAPGKERELVAAISRRGGRTYYADSVKGRFTISRDNAKNTVYLQMNSLKPEDTAVYYCAVRWYSYRQRYNYWGQGTQVTVSS , I see its polyreactivity (PSR sort gate) listed as high polyreactivity
